Test: Critical micelle concentration (CMC) by dye solubilization (Orange OT or DPH)
Assay type: physicochemical
Settings: determined by DPH (diphenylhexatriene) or Orange OT
Label n if CMC falls below 1 mM; label y in every other case.

Exercise: # bool: CMC of CCCCCC[C@]1(CC(=O)NC(CO[C@H]2OC(CO)[C@H](O)C(O)[C@H]2O)CO[C@H]2OC(CO)[C@H](O)C(O)[C@H]2O)C2C[C@@H]3C[C@H](C2)C[C@@H]1C3 (some centres unmarked) >= 1 mM
Solution: y

Exercise: # bool: CMC of CCCCC(CCCC)(CC(=O)NC(CO[C@@H]1O[C@H](CO)[C@@H](O)[C@H](O)[C@H]1O)CO[C@@H]1O[C@H](CO)[C@@H](O)[C@H](O)[C@H]1O)c1ccc(C(C)C)cc1 >= 1 mM
Solution: y

Exercise: # bool: CMC of CCCCCC(CCCCC)(CC(=O)NC(CO[C@@H]1O[C@H](CO)[C@@H](O)[C@H](O)[C@H]1O)CO[C@@H]1O[C@H](CO)[C@@H](O)[C@H](O)[C@H]1O)c1ccccc1 >= 1 mM
Solution: y

Exercise: # bool: CMC of CCCCCCCCCCCCC(=O)NC(CO[C@@H]1O[C@H](CO)[C@@H](O)[C@H](O)[C@H]1O)CO[C@@H]1O[C@H](CO)[C@@H](O)[C@H](O)[C@H]1O >= 1 mM
Solution: y

Consider the additional compound presented here.
Exercise: # bool: CMC of CCCCCCC(CCCCCC)(CC(=O)NC(CO[C@@H]1O[C@H](CO)[C@@H](O[C@H]2O[C@H](CO)[C@@H](O)[C@H](O)[C@H]2O)[C@H](O)[C@H]1O)CO[C@@H]1O[C@H](CO)[C@@H](O[C@H]2O[C@H](CO)[C@@H](O)[C@H](O)[C@H]2O)[C@H](O)[C@H]1O)c1ccccc1 >= 1 mM
Solution: n

* * *

Tested on: LHI-RC superassembly in Rhodobacter capsulatus membranes
Conditions: detergent at 10x CMC, 30 minutes at 32° C.
Quantity: Level (S/P solubilization rank and detergent strength)

Solved entries:
Exercise: Look at this compound and give its reported Level (S/P solubilization rank and detergent strength). CCCCC(CCCC)(CC(=O)NCCOC1OC(CO)C(O)C(O)C1O)c1ccccc1 (stereo not drawn)
Solution: insoluble

Exercise: Look at this compound and give its reported Level (S/P solubilization rank and detergent strength). CCCCCCCCCCCCC(=O)NCCO[C@@H]1O[C@H](CO)[C@@H](O)[C@H](O)[C@H]1O
Solution: insoluble

Exercise: Look at this compound and give its reported Level (S/P solubilization rank and detergent strength). CCCCCCCCCCCCCCCCC(=O)NC(CO[C@@H]1O[C@H](CO)[C@@H](O)[C@H](O)[C@H]1O)CO[C@@H]1O[C@H](CO)[C@@H](O)[C@H](O)[C@H]1O
Solution: insoluble

Exercise: Look at this compound and give its reported Level (S/P solubilization rank and detergent strength). OCC1O[C@H](OCC23CC4CC(CC(C4)C2)C3)[C@H](O)C(O)[C@H]1O (stereo partly drawn)
Solution: insoluble

Exercise: Look at this compound and give its reported Level (S/P solubilization rank and detergent strength). CCCCCCCCCCCCC(=O)NCCO[C@@H]1O[C@H](CO)[C@@H](O[C@H]2O[C@H](CO)[C@@H](O)[C@H](O)[C@H]2O)[C@H](O)[C@H]1O
Solution: insoluble

Then this compound:
Exercise: Look at this compound and give its reported Level (S/P solubilization rank and detergent strength). OC[C@H]1O[C@@H](OCCC23CC4CC(CC(C4)C2)C3)[C@H](O)[C@@H](O)[C@@H]1O
Solution: insoluble
